Procedure details: In vivo pharmacokinetic experiment in mice
Set-up: species or system CD-1 female mice
Measurement setup: female, mouse, plasma; CD-1 mice, injection (IV) 2 mg/kg
Reported metric: clearance (mL/min/kg)
Numeric only. Scale: mL/min/kg

Value lookup for clearance; key = `COc1cc(C(=O)NC2CCC3(CC2)CN(C)C3)c(F)cc1Nc1ncc(C(F)(F)F)c(Oc2cccc3c2C(=O)N(C)C3)n1`
26.8

----------
Assay system: FAK recombinant protein (Homo sapiens, UniProt Q05397)
Sequence (Q05397 whole entry, species assumed): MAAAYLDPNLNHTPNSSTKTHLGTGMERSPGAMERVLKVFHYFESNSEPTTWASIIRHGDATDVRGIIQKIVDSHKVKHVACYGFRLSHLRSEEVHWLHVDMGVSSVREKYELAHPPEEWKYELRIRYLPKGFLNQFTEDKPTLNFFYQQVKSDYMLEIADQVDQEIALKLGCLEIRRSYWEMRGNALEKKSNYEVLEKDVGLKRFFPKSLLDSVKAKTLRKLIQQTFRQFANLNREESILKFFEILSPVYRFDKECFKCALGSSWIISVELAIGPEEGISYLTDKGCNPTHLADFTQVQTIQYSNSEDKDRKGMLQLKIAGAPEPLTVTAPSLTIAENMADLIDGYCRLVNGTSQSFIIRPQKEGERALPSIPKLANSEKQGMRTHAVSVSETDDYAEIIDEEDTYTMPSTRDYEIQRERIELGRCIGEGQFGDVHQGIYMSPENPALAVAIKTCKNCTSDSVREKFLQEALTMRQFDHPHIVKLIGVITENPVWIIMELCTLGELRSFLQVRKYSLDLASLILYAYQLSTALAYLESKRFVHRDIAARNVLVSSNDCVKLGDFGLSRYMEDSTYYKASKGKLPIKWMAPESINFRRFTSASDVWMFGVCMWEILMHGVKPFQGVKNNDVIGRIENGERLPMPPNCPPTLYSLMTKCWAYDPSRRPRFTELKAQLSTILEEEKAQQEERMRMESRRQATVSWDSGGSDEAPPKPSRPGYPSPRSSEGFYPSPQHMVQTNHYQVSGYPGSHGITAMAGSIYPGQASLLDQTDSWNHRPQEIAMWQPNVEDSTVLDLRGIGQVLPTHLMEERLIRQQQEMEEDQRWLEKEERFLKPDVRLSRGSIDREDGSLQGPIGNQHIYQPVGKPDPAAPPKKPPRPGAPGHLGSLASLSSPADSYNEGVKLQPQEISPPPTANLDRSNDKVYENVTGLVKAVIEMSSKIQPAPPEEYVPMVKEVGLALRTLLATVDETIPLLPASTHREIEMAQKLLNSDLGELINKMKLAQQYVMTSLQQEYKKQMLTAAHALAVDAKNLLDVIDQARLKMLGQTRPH
Procedure details: Inhibitory activity against FAK enzyme
Measurement setup: TK substrate, ATP
Listed next: entries and their corresponding IC50.

Query for FAK recombinant protein (Homo sapiens, UniProt Q05397): what IC50 does the record show for COc1cc(C(=O)NC2CCC23CCN(C)CC3)c(F)cc1Nc1ncc(C(F)(F)F)c(Oc2cccc3c2C(=O)N(C)C3)n1 (stereo not drawn) [Compound 21] ?
10 to 50 nM

Query for FAK recombinant protein (Homo sapiens, UniProt Q05397): what IC50 does the record show for COc1cc(C(=O)NC2CC3(CCN(C)CC3)C2)c(F)cc1Nc1ncc(C(F)(F)F)c(Oc2cccc3c2C(=O)N(C)C3C)n1 (stereo not drawn) [Compound 70] ?
< 10 nM

Query for FAK recombinant protein (Homo sapiens, UniProt Q05397): what IC50 does the record show for CCN1CCC2(CC1)CC(NC(=O)c1cc(OC)c(Nc3ncc(C(F)(F)F)c(Oc4cccc5c4C(=O)N(C)C5)n3)cc1F)C2 [Compound 42] ?
< 10 nM

----------
Procedure details: In vivo pharmacokinetic experiment in mice
Set-up: species or system CD-1 female mice
Measurement setup: female, mouse, plasma; CD-1 mice, oral administration 10 mg/kg vs injection
Reported metric: bioavailability (%)
Numeric only. Scale: %

INSERT INTO assay_data (chemical_structure, obs_value) VALUES
  ('COc1cc(C(=O)NC2CCC3(CC2)CN(C)C3)c(F)cc1Nc1ncc(C(F)(F)F)c(Oc2cccc3c2C(=O)N(C)C3)n1', 30);

Let us move to another entry and its bioavailability.
Value lookup for bioavailability; key = `COc1cc(N2CC3(CCN(C)CC3)C2)ccc1Nc1ncc(C(F)(F)F)c(Oc2cccc3c2C(=O)N(C)C3)n1`
92

----------
Procedure details: In vivo pharmacokinetic experiment in mice
Set-up: species or system CD-1 female mice
Measurement setup: female, mouse, plasma; CD-1 mice, injection (IV) 2 mg/kg; read-out: Vdss
Reported metric: Vd (L/kg)
Numeric only. Scale: L/kg

Value lookup for Vd; key = `COc1cc(C(=O)NC2CCC3(CC2)CN(C)C3)c(F)cc1Nc1ncc(C(F)(F)F)c(Oc2cccc3c2C(=O)N(C)C3)n1`
4.99

----------
Assay system: FAK recombinant protein (Homo sapiens, UniProt Q05397)
Procedure details: Inhibitory activity against FAK enzyme
Measurement setup: TK substrate, ATP
Protocol: The compound serially diluted with DMSO and a FAK recombinant protein were mixed, and the mixture was left to stand at room temperature for 10 min. A biotin-labeled TK substrate (TK) and ATP were then added. […] After the mixture was incubated at room temperature for 1 h, the fluorescence intensity at 615 nm and 665 nm was measured. The ratio of the fluorescence intensity at 665 nm and 615 nm was calculated. […]
pIC50: −log10 of the molar value.
Reported metric: pIC50

Solved cases below.
INSERT INTO results (compound, obs_value) VALUES
  ('COc1cc(C(=O)NC2CCC3(CC2)CCN(C)CC3)c(F)cc1Nc1ncc(C(F)(F)F)c(Oc2cccc3c2C(=O)N(C)C3)n1 [Compound 26]', '> 8.00'),
  ('COc1cc(C(=O)NC2CCC3(CC2)CN(C)C3)c(Cl)cc1Nc1ncc(C(F)(F)F)c(Cc2cccc3c2C(=O)N(C)C3)n1 [Compound 56]', '> 8.00'),
  ('[2H]C([2H])([2H])N1CCC2(CC1)CN(c1ccc(Nc3ncc(C(F)(F)F)c(Oc4cccc5c4C(=O)N(C)C5)n3)c(OC)c1)C2 [Compound 109]', '> 8.00'),
  ('COc1cc(C(=O)NC2CC3(CCN(C)CC3)CO2)c(F)cc1Nc1ncc(C(F)(F)F)c(Oc2ccccc2N(C)S(C)(=O)=O)n1 (stereo not shown) [Compound 12]', '> 8.00'),
  ('COc1cc(C(=O)NC2CCC3(CC2)CN(C)C3)ccc1Nc1ncc(C(F)(F)F)c(Oc2cccc3c2C(=O)N(C)C3)n1 [Compound 46]', '> 8.00'),
  ('COc1cc(C(=O)NC2CCN3CCOC3C2)c(F)cc1Nc1ncc(C(F)(F)F)c(Oc2cccc3c2C(=O)N(C)C3)n1 (stereo not shown) [Compound 30]', '> 8.00');

Value lookup for pIC50; key = COc1cc(C(=O)NC2CCC3(CC2)CCN(C)C3)c(F)cc1Nc1ncc(C(F)(F)F)c(Cc2cccc3c2C(=O)N(C)C3)n1 (stereo not shown) [Compound 53]
> 8.00

Value lookup for pIC50; key = COc1cc(N2CCC3(CC2)CN(C)C3)ccc1Nc1ncc(Br)c(Oc2cccc3c2C(=O)N(C)C3)n1 [Compound 117]
> 8.00

Value lookup for pIC50; key = COc1cc(C2=NOC3(CCN(C)CC3)C2)ccc1Nc1ncc(C(F)(F)F)c(Oc2cccc3c2C(=O)N(C)C3)n1 [Compound 68]
7.30 to 8.00
